Reported MCC at 3 days by item:
Assay: Cytotoxicity against MDCK cells assessed as minimum concentration required to cause microscopically detectable alteration measured on day 3 post infection by MTS assay
Assay type: cell-based, Canis lupus familiaris
Conditions: dog
propertyMeasured: MCC at 3 days (µM)

INSERT INTO measurements (smilesdata, censoringsign, measuredvalue) VALUES
  ('COC(=O)[C@H]1NC(=O)[C@H]2NC(=O)[C@H](NC(=O)[C@@H]3NC(=O)[C@H]4NC(=O)[C@H](NC(=O)[C@H](N)c5ccc(O)c(c5)Oc5cc4cc(O)c5C)[C@H](O)c4ccc(cc4)Oc4cc3cc(c4O)Oc3ccc(cc3)[C@H]2O)c2ccc(O)c(c2)-c2c(O)cc(O)cc21', '>', 100),
  ('NC12CC3CC(CC(C3)C1)C2', '>', 500),
  ('NC(=O)c1ncn([C@@H]2O[C@H](CO)[C@@H](O)[C@H]2O)n1', '≥', 20),
  ('COC(=O)[C@H]1NC(=O)[C@H]2NC(=O)[C@H](NC(=O)[C@@H]3NC(=O)[C@H]4NC(=O)[C@H](NC(=O)[C@H](n5cc6cc7ccccc7cc6c5Sc5ccccc5)c5ccc(O)c(c5)Oc5cc4cc(O)c5C)[C@H](O)c4ccc(cc4)Oc4cc3cc(c4O)Oc3ccc(cc3)[C@H]2O)c2ccc(O)c(c2)-c2c(O)cc(O)cc21', '=', 20),
  ('COC(=O)[C@H]1NC(=O)[C@H]2NC(=O)[C@H](NC(=O)[C@@H]3NC(=O)[C@H]4NC(=O)[C@H](NC(=O)[C@H](n5cc6ccccc6c5Sc5ncccn5)c5ccc(O)c(c5)Oc5cc4cc(O)c5C)[C@H](O)c4ccc(cc4)Oc4cc3cc(c4O)Oc3ccc(cc3)[C@H]2O)c2ccc(O)c(c2)-c2c(O)cc(O)cc21', '=', 20);

----------
Reported MIC by item:
Tested on: Staphylococcus aureus
Assay: Antibacterial activity against methicillin-resistant Staphylococcus aureus ATCC 33591 by broth microdilution method
Assay type: functional
propertyMeasured: MIC (µg/mL)

INSERT INTO assay_data (smilesdata, measuredvalue) VALUES
  ('COC(=O)[C@H]1NC(=O)[C@H]2NC(=O)[C@H](NC(=O)[C@@H]3NC(=O)[C@H]4NC(=O)[C@H](NC(=O)[C@H](n5cc6ccccc6c5Sc5ccccc5)c5ccc(O)c(c5)Oc5cc4cc(O)c5C)[C@H](O)c4ccc(cc4)Oc4cc3cc(c4O)Oc3ccc(cc3)[C@H]2O)c2ccc(O)c(c2)-c2c(O)cc(O)cc21', 1),
  ('COC(=O)[C@H]1NC(=O)[C@H]2NC(=O)[C@H](NC(=O)[C@@H]3NC(=O)[C@H]4NC(=O)[C@H](NC(=O)[C@H](n5cc6ccccc6c5Sc5nc6ccccc6s5)c5ccc(O)c(c5)Oc5cc4cc(O)c5C)[C@H](O)c4ccc(cc4)Oc4cc3cc(c4O)Oc3ccc(cc3)[C@H]2O)c2ccc(O)c(c2)-c2c(O)cc(O)cc21', 0.5),
  ('COC(=O)[C@H]1NC(=O)[C@H]2NC(=O)[C@H](NC(=O)[C@@H]3NC(=O)[C@H]4NC(=O)[C@H](NC(=O)[C@H](n5cc6ccccc6c5S[C@@H]5O[C@H](COC(C)=O)[C@@H](OC(C)=O)[C@H](OC(C)=O)[C@H]5NC(C)=O)c5ccc(O)c(c5)Oc5cc4cc(O)c5C)[C@H](O)c4ccc(cc4)Oc4cc3cc(c4O)Oc3ccc(cc3)[C@H]2O)c2ccc(O)c(c2)-c2c(O)cc(O)cc21', 4),
  ('COC(=O)[C@H]1NC(=O)[C@H]2NC(=O)[C@H](NC(=O)[C@@H]3NC(=O)[C@H]4NC(=O)[C@H](NC(=O)[C@H](n5cc6cc7ccccc7cc6c5Sc5ccccc5)c5ccc(O)c(c5)Oc5cc4cc(O)c5C)[C@H](O)c4ccc(cc4)Oc4cc3cc(c4O)Oc3ccc(cc3)[C@H]2O)c2ccc(O)c(c2)-c2c(O)cc(O)cc21', 0.5),
  ('COC(=O)[C@H]1NC(=O)[C@H]2NC(=O)[C@H](NC(=O)[C@@H]3NC(=O)[C@H]4NC(=O)[C@H](NC(=O)[C@H](n5cc6ccccc6c5Sc5ncccn5)c5ccc(O)c(c5)Oc5cc4cc(O)c5C)[C@H](O)c4ccc(cc4)Oc4cc3cc(c4O)Oc3ccc(cc3)[C@H]2O)c2ccc(O)c(c2)-c2c(O)cc(O)cc21', 1),
  ('COC(=O)[C@H]1NC(=O)[C@H]2NC(=O)[C@H](NC(=O)[C@@H]3NC(=O)[C@H]4NC(=O)[C@H](NC(=O)[C@H](n5cc6ccccc6c5S[C@@H]5O[C@H](CO)[C@@H](O)[C@H](O)[C@H]5O)c5ccc(O)c(c5)Oc5cc4cc(O)c5C)[C@H](O)c4ccc(cc4)Oc4cc3cc(c4O)Oc3ccc(cc3)[C@H]2O)c2ccc(O)c(c2)-c2c(O)cc(O)cc21', 1),
  ('COC(=O)[C@H]1NC(=O)[C@H]2NC(=O)[C@H](NC(=O)[C@@H]3NC(=O)[C@H]4NC(=O)[C@H](NC(=O)[C@H](n5cc6cc7ccccc7cc6c5Sc5ncccn5)c5ccc(O)c(c5)Oc5cc4cc(O)c5C)[C@H](O)c4ccc(cc4)Oc4cc3cc(c4O)Oc3ccc(cc3)[C@H]2O)c2ccc(O)c(c2)-c2c(O)cc(O)cc21', 2);

----------
Reported EC50 by item:
Test system: H3N2 subtype
Assay: Antiviral activity against Influenza A/HK/7/87 infected in MDCK cells assessed as inhibition of virus-induced cytopathic effect measured on day 3 post infection by MTS assay
Format: functional, organism-based
Settings: A/Hong Kong/7/1987(H3N2), 72 h
propertyMeasured: EC50 (nM)

INSERT INTO assay_data (smilesdata, propertymeasured, measuredvalue) VALUES
  ('NC(=O)c1ncn([C@@H]2O[C@H](CO)[C@@H](O)[C@H]2O)n1', 'EC50', 8900),
  ('COC(=O)[C@H]1NC(=O)[C@H]2NC(=O)[C@H](NC(=O)[C@@H]3NC(=O)[C@H]4NC(=O)[C@H](NC(=O)[C@H](n5cc6ccccc6c5Sc5nc6ccccc6s5)c5ccc(O)c(c5)Oc5cc4cc(O)c5C)[C@H](O)c4ccc(cc4)Oc4cc3cc(c4O)Oc3ccc(cc3)[C@H]2O)c2ccc(O)c(c2)-c2c(O)cc(O)cc21', 'EC50', 4000),
  ('COC(=O)[C@H]1NC(=O)[C@H]2NC(=O)[C@H](NC(=O)[C@@H]3NC(=O)[C@H]4NC(=O)[C@H](NC(=O)[C@H](n5cc6ccccc6c5S[C@@H]5O[C@H](CO)[C@@H](O)[C@H](O)[C@H]5O)c5ccc(O)c(c5)Oc5cc4cc(O)c5C)[C@H](O)c4ccc(cc4)Oc4cc3cc(c4O)Oc3ccc(cc3)[C@H]2O)c2ccc(O)c(c2)-c2c(O)cc(O)cc21', 'EC50', 2300),
  ('COC(=O)[C@H]1NC(=O)[C@H]2NC(=O)[C@H](NC(=O)[C@@H]3NC(=O)[C@H]4NC(=O)[C@H](NC(=O)[C@H](n5cc6ccccc6c5S[C@@H]5O[C@H](COC(C)=O)[C@@H](OC(C)=O)[C@H](OC(C)=O)[C@H]5NC(C)=O)c5ccc(O)c(c5)Oc5cc4cc(O)c5C)[C@H](O)c4ccc(cc4)Oc4cc3cc(c4O)Oc3ccc(cc3)[C@H]2O)c2ccc(O)c(c2)-c2c(O)cc(O)cc21', 'EC50', 1800),
  ('COC(=O)[C@H]1NC(=O)[C@H]2NC(=O)[C@H](NC(=O)[C@@H]3NC(=O)[C@H]4NC(=O)[C@H](NC(=O)[C@H](n5cc6ccccc6c5S[C@@H]5O[C@H](COC(C)=O)[C@@H](OC(C)=O)[C@H](OC(C)=O)[C@H]5OC(C)=O)c5ccc(O)c(c5)Oc5cc4cc(O)c5C)[C@H](O)c4ccc(cc4)Oc4cc3cc(c4O)Oc3ccc(cc3)[C@H]2O)c2ccc(O)c(c2)-c2c(O)cc(O)cc21', 'EC50', 72),
  ('CC(=O)N[C@H]1[C@H]([C@H](O)[C@H](O)CO)OC(C(=O)O)=C[C@@H]1NC(=N)N', 'EC50', 1800),
  ('COC(=O)[C@H]1NC(=O)[C@H]2NC(=O)[C@H](NC(=O)[C@@H]3NC(=O)[C@H]4NC(=O)[C@H](NC(=O)[C@H](n5cc6ccccc6c5Sc5ccccc5)c5ccc(O)c(c5)Oc5cc4cc(O)c5C)[C@H](O)c4ccc(cc4)Oc4cc3cc(c4O)Oc3ccc(cc3)[C@H]2O)c2ccc(O)c(c2)-c2c(O)cc(O)cc21', 'EC50', 680),
  ('NC12CC3CC(CC(C3)C1)C2', 'EC50', 2300);

----------
Test system: Staphylococcus aureus
Test: Antibacterial activity against methicillin-sensitive Staphylococcus aureus ATCC 29213 by broth microdilution method
Assay type: functional
propertyMeasured: MIC (µg/mL)

INSERT INTO measurements (smilesdata, measuredvalue) VALUES
  ('COC(=O)[C@H]1NC(=O)[C@H]2NC(=O)[C@H](NC(=O)[C@@H]3NC(=O)[C@H]4NC(=O)[C@H](NC(=O)[C@H](n5cc6cc7ccccc7cc6c5Sc5ncccn5)c5ccc(O)c(c5)Oc5cc4cc(O)c5C)[C@H](O)c4ccc(cc4)Oc4cc3cc(c4O)Oc3ccc(cc3)[C@H]2O)c2ccc(O)c(c2)-c2c(O)cc(O)cc21', 2),
  ('COC(=O)[C@H]1NC(=O)[C@H]2NC(=O)[C@H](NC(=O)[C@@H]3NC(=O)[C@H]4NC(=O)[C@H](NC(=O)[C@H](n5cc6ccccc6c5S[C@@H]5O[C@H](COC(C)=O)[C@@H](OC(C)=O)[C@H](OC(C)=O)[C@H]5NC(C)=O)c5ccc(O)c(c5)Oc5cc4cc(O)c5C)[C@H](O)c4ccc(cc4)Oc4cc3cc(c4O)Oc3ccc(cc3)[C@H]2O)c2ccc(O)c(c2)-c2c(O)cc(O)cc21', 4),
  ('COC(=O)[C@H]1NC(=O)[C@H]2NC(=O)[C@H](NC(=O)[C@@H]3NC(=O)[C@H]4NC(=O)[C@H](NC(=O)[C@H](n5cc6cc7ccccc7cc6c5Sc5ccccc5)c5ccc(O)c(c5)Oc5cc4cc(O)c5C)[C@H](O)c4ccc(cc4)Oc4cc3cc(c4O)Oc3ccc(cc3)[C@H]2O)c2ccc(O)c(c2)-c2c(O)cc(O)cc21', 0.5),
  ('COC(=O)[C@H]1NC(=O)[C@H]2NC(=O)[C@H](NC(=O)[C@@H]3NC(=O)[C@H]4NC(=O)[C@H](NC(=O)[C@H](n5cc6ccccc6c5Sc5ncccn5)c5ccc(O)c(c5)Oc5cc4cc(O)c5C)[C@H](O)c4ccc(cc4)Oc4cc3cc(c4O)Oc3ccc(cc3)[C@H]2O)c2ccc(O)c(c2)-c2c(O)cc(O)cc21', 1),
  ('COC(=O)[C@H]1NC(=O)[C@H]2NC(=O)[C@H](NC(=O)[C@@H]3NC(=O)[C@H]4NC(=O)[C@H](NC(=O)[C@H](n5cc6ccccc6c5Sc5ccccc5)c5ccc(O)c(c5)Oc5cc4cc(O)c5C)[C@H](O)c4ccc(cc4)Oc4cc3cc(c4O)Oc3ccc(cc3)[C@H]2O)c2ccc(O)c(c2)-c2c(O)cc(O)cc21', 1),
  ('COC(=O)[C@H]1NC(=O)[C@H]2NC(=O)[C@H](NC(=O)[C@@H]3NC(=O)[C@H]4NC(=O)[C@H](NC(=O)[C@H](n5cc6ccccc6c5Sc5nc6ccccc6s5)c5ccc(O)c(c5)Oc5cc4cc(O)c5C)[C@H](O)c4ccc(cc4)Oc4cc3cc(c4O)Oc3ccc(cc3)[C@H]2O)c2ccc(O)c(c2)-c2c(O)cc(O)cc21', 1),
  ('COC(=O)[C@H]1NC(=O)[C@H]2NC(=O)[C@H](NC(=O)[C@@H]3NC(=O)[C@H]4NC(=O)[C@H](NC(=O)[C@H](n5cc6ccccc6c5S[C@@H]5O[C@H](COC(C)=O)[C@@H](OC(C)=O)[C@H](OC(C)=O)[C@H]5OC(C)=O)c5ccc(O)c(c5)Oc5cc4cc(O)c5C)[C@H](O)c4ccc(cc4)Oc4cc3cc(c4O)Oc3ccc(cc3)[C@H]2O)c2ccc(O)c(c2)-c2c(O)cc(O)cc21', 2);
